Please go through the items and note down their nonsense suppression.
B1: tRNA (parent)
chain: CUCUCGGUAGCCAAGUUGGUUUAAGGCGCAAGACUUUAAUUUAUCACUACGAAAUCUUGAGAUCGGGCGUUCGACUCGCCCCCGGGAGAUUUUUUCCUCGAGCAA

Variants of: B1
methodSummary: nonsense suppression (GFP-seq) (ratio to wild type); higher = more function; SUP4oc tRNA, yeast GFP reporter sort-seq
Fewer inactive variants are shown than the library holds.

{"variantDescriptor": "U8A G85U", "nonsense suppression": 0.071}
{"variantDescriptor": "U16G C82G", "nonsense suppression": "≤ 0.026"}
{"variantDescriptor": "G7A G18U", "nonsense suppression": "≤ 0.026"}
{"variantDescriptor": "G26U G69U C79U", "nonsense suppression": "≤ 0.026"}
{"variantDescriptor": "U63C C82U", "nonsense suppression": 0.449}

// each listed variant needs a value for nonsense suppression
1. U8A G19C A60G
2. G67A G78U
3. A24C C34G C56U
4. A30U U55G G78C A89C

Result:
1. ≤ 0.026
2. 0.0411
3. ≤ 0.026
4. ≤ 0.026

Field: nonsense suppression. Fill in for each record below.
1. C77A C81U
2. U17A C34U A74U

Result:
1. ≤ 0.026
2. ≤ 0.026
